experiment: Photostability of compound in aqueous media assessed as amount of soret band remaining after irradiation with white light at 100 mW/cm'2 for 30 mins by UV-spectrophotometric analysis; format: physicochemical; details: read-out: Stability
Entries and their measured remaining at 0.5 h follow.

{"record smiles": "C[n+]1ccc(-c2c3nc(c(-c4ccccc4)c4nc(c(-c5cc[n+](C)cc5)c5ccc([nH]5)c(-c5ccccc5)c5ccc2[nH]5)C=C4)C=C3)cc1.[I-].[I-]", "readout unit": "%", "remaining at 0.5 h": 91}
{"record smiles": "O=S(=O)([O-])c1ccc(-c2c3nc(c(-c4ccc(S(=O)(=O)[O-])cc4)c4ccc([nH]4)c(-c4ccc(S(=O)(=O)[O-])cc4)c4nc(c(-c5ccc(S(=O)(=O)[O-])cc5)c5ccc2[nH]5)C=C4)C=C3)cc1.[Na+].[Na+].[Na+].[Na+]", "readout unit": "%", "remaining at 0.5 h": 91}
{"record smiles": "C[n+]1ccc(-c2c3nc(c(-c4cc[n+](C)cc4)c4ccc([nH]4)c(-c4cc[n+](C)cc4)c4nc(c(-c5cc[n+](C)cc5)c5ccc2[nH]5)C=C4)C=C3)cc1.[I-].[I-].[I-].[I-]", "readout unit": "%", "remaining at 0.5 h": 98}
{"record smiles": "C[n+]1ccc(-c2c3nc(c(-c4ccccc4)c4ccc([nH]4)c(-c4ccccc4)c4nc(c(-c5cc[n+](C)cc5)c5ccc2[nH]5)C=C4)C=C3)cc1.[I-].[I-]", "readout unit": "%", "remaining at 0.5 h": 92}
{"record smiles": "COc1ccc(-c2c3nc(c(-c4ccc(OC)cc4)c4ccc([nH]4)c(-c4ccc(OC)cc4)c4nc(c(-c5ccc(OC)cc5)c5ccc2[nH]5)C=C4)C=C3)cc1", "readout unit": "%", "remaining at 0.5 h": 97}
{"record smiles": "C[n+]1ccc(-c2c3nc(c(-c4cc[n+](C)cc4)c4ccc([nH]4)c(-c4cc[n+](C)cc4)c4nc(c(-c5ccccc5)c5ccc2[nH]5)C=C4)C=C3)cc1.[I-].[I-].[I-]", "readout unit": "%", "remaining at 0.5 h": 97}
{"record smiles": "Nc1ccc(-c2c3nc(c(-c4ccccc4)c4ccc([nH]4)c(-c4ccccc4)c4nc(c(-c5ccccc5)c5ccc2[nH]5)C=C4)C=C3)cc1", "readout unit": "%", "remaining at 0.5 h": 96}
{"record smiles": "C[n+]1ccc(Sc2c(F)c(F)c(-c3c4nc(c(-c5c(F)c(F)c(Sc6cc[n+](C)cc6)c(F)c5F)c5ccc([nH]5)c(-c5c(F)c(F)c(Sc6cc[n+](C)cc6)c(F)c5F)c5nc(c(-c6c(F)c(F)c(Sc7cc[n+](C)cc7)c(F)c6F)c6ccc3[nH]6)C=C5)C=C4)c(F)c2F)cc1.[I-].[I-].[I-].[I-]", "readout unit": "%", "remaining at 0.5 h": 89}
